Biological target: human PPARα (Homo sapiens)
Construct: PPARγ (aa 174 to 476) and PPARα (aa 167 to 469); made in house; host or cells: E. coli BL21(pLysS)
Sequence (Q07869 167-468 limits assumed): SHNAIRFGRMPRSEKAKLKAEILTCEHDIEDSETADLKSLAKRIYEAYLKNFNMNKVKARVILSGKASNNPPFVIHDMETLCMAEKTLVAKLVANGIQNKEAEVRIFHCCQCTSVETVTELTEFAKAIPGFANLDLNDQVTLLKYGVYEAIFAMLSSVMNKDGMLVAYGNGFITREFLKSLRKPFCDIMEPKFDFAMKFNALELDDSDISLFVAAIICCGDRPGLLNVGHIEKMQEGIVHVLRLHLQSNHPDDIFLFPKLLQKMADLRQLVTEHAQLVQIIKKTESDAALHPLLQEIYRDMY
Test: Luciferase transcriptional reporter gene assay, pFA-PPARα-LBD in BHK21 cells
Assay type: cell-based
Details: BHK21 cells transfected with pFA-PPARα-LBD, 24 hours incubation; read-out: PPARα EC50
pEC50: −log10 of the molar value.
Label Met when pEC50 is at or above 7; anything below gets Not met.

| smiles input | cat |
| --- | --- |
| CCO[C@@H](Cc1ccc(OCc2nc(-c3ccc(C(C)C)cc3)oc2C)cc1OC)C(=O)O | Met |
| CCO[C@@H](Cc1ccc(OCc2nc(-c3ccc(OC(C)C)cc3)oc2C)cc1Cl)C(=O)O | Not met |
| CCO[C@@H](Cc1c(C)cc(OCc2nc(-c3ccccc3)oc2C)cc1C)C(=O)O | Not met |
| CCO[C@@H](Cc1ccc(OCc2nc(-c3ccc(F)c(C)c3)oc2C)cc1CC)C(=O)O | Met |
| CCO[C@@H](Cc1ccc(OCc2nc(-c3ccc(F)c(C)c3)oc2C)cc1C)C(=O)O | Met |
| CCO[C@@H](Cc1ccc(OCc2nc(-c3ccccc3)oc2C)cc1C)C(=O)O | Met |

---

Target: mouse PPARγ (Mus musculus)
Sequence (P37238 204-505): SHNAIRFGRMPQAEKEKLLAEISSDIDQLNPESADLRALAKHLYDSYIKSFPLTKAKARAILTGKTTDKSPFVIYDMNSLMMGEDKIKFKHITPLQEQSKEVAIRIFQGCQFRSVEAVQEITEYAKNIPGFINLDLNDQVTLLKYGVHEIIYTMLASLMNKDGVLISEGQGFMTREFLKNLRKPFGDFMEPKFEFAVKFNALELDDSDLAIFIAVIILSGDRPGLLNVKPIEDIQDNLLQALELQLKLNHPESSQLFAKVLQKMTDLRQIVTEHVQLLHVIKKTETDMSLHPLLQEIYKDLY
Assay: Radioligand binding assay (SPA), GST-PPARγ-LBD
Parameters: PPARγ (aa 174 to 476)
pIC50: −log10 of the molar value.

| compound | pIC50 |
| --- | --- |
| CCO[C@@H](Cc1ccc(OCc2nc(-c3ccc(F)c(C)c3)oc2C)cc1C)C(=O)O [Example 5] | 6.84 |
| CCO[C@@H](Cc1ccc(OCc2nc(-c3ccc(OC(C)C)cc3)oc2C)cc1Cl)C(=O)O [Example 17] | 7.51 |
| CCO[C@@H](Cc1ccc(OCc2nc(-c3ccc(OC(C)C)cc3)oc2C)cc1C)C(=O)O [Example 2] | 7.24 |
| CCO[C@@H](Cc1c(C)cc(OCc2nc(-c3ccccc3)oc2C)cc1C)C(=O)O [Example 29] | 5.76 |
| CCO[C@@H](Cc1ccc(OCc2nc(-c3ccccc3)oc2C)cc1C)C(=O)O [Example 3] | 6.30 |
| CCO[C@@H](Cc1ccc(OCc2nc(-c3ccc(F)c(C)c3)oc2C)cc1CC)C(=O)O [Example 9] | 6.89 |
| CCO[C@@H](Cc1ccc(OCc2nc(-c3ccc(C(C)C)cc3)oc2C)cc1OC)C(=O)O [Example 25] | 6.89 |

---

Molecular target: mouse PPARγ (Mus musculus, UniProt P37238)
Sequence (P37238 204-505): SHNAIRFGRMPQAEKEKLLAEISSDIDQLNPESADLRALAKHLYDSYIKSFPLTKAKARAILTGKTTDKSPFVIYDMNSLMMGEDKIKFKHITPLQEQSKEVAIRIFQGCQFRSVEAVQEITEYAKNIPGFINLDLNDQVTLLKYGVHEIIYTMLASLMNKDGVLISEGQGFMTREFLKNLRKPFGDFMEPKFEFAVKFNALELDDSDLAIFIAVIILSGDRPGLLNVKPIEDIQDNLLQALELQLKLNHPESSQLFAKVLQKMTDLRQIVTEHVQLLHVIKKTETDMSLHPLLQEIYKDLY
Test: Luciferase transcriptional reporter gene assay, pFA-PPARγ-LBD in BHK21 cells
Assay type: cell-based
Parameters: PPARγ (aa 174 to 476) and PPARα (aa 167 to 469); expressed in transfected cells; host or cells: BHK21 (ATCC CCL10)
Protocol: Full-length cDNA clones for human PPARα and mouse PPARγ were obtained by RT-PCR from human adipose and mouse liver cRNA, respectively, cloned into plasmid vectors and verified by DNA sequencing. […] Baby hamster kidney cells (BHK21 ATCC CCL10) were grown in DMEM medium containing 10% FBS at 37° C. in a 95% O2:5% CO2 atmosphere. […] Following incubation of the cells for 24 hours with substances, 50 ul of the supernatant was recovered and analyzed for SEAP activity (Roche Molecular Biochemicals). […]
// values below are reported EC50

| smiles input | EC50 |
| --- | --- |
| CCO[C@@H](Cc1ccc(OCc2nc(-c3ccccc3)oc2C)cc1C)C(=O)O | 87 nM |
| CCO[C@@H](Cc1ccc(OCc2nc(-c3ccc(OC(C)C)cc3)oc2C)cc1C)C(=O)O | 115 nM |
| CCO[C@@H](Cc1c(C)cc(OCc2nc(-c3ccccc3)oc2C)cc1C)C(=O)O | 678 nM |
| CCO[C@@H](Cc1ccc(OCc2nc(-c3ccc(OC(C)C)cc3)oc2C)cc1Cl)C(=O)O | 174 nM |
| CCO[C@@H](Cc1ccc(OCc2nc(-c3ccc(C(C)C)cc3)oc2C)cc1OC)C(=O)O | 75 nM |
| CCO[C@@H](Cc1ccc(OCc2nc(-c3ccc(F)c(C)c3)oc2C)cc1CC)C(=O)O | 33 nM |
| CCO[C@@H](Cc1ccc(OCc2nc(-c3ccc(F)c(C)c3)oc2C)cc1C)C(=O)O | 124 nM |

# credit: patent US7348349B2
